Where do these numbers come from? They come from patent EP1561465A2.

# System: Campylobacter jejuni
# PROTOCOL NOTES: MIC by agar dilution (NCCLS M7-A4), 288 enteropathogenic isolates, gemifloxacin and 15 other antimicrobials
# PARTICULARS: Campylobacter jejuni, read-out: MIC (mg/L) 90%
What MIC was measured for each of the following?
Please state the figure in mg/L; there is no need to write the unit.

Indicate the recorded MIC value for this compound: `C[C@H]1COc2c(N3CCN(C)CC3)c(F)cc3c(=O)c(C(=O)O)cn1c23`
32

Indicate the recorded MIC value for this compound: `N[C@@H]1[C@H]2CN(c3nc4c(cc3F)c(=O)c(C(=O)O)cn4-c3ccc(F)cc3F)C[C@@H]12`
8

Indicate the recorded MIC value for this compound: CO/N=C1\CN(c2nc3c(cc2F)c(=O)c(C(=O)O)cn3C2CC2)CC1CN (racemic) [Gemifloxacin (SB 265805)]
128

Indicate the recorded MIC value for this compound: `CC1(C)S[C@@H]2[C@H](NC(=O)[C@H](N)c3ccc(O)cc3)C(=O)N2[C@H]1C(=O)O`
32

Indicate the recorded MIC value for this compound: `CO/N=C(\C(=O)N[C@@H]1C(=O)N2C(C(=O)O)=C(COC(C)=O)CS[C@H]12)c1csc(N)n1`
16

###

What MIC90 was measured for each of the following?
# Test system: Enterococcus faecalis
# PROTOCOL NOTES: MIC by NCCLS broth microdilution, 1100 Japanese clinical isolates 1997-1998
# Assay type: cell-based
# PARTICULARS: Enterococcus faecalis, Enterococcus faecalis ciprofloxacin susceptible (n=24); read-out: MIC90
Please state the figure in µg/mL; there is no need to write the unit.

Send back Enterococcus faecalis MIC90 of `C[C@@H]1CN(c2c(F)c(N)c3c(=O)c(C(=O)O)cn(C4CC4)c3c2F)C[C@H](C)N1` only.
1

Send back Enterococcus faecalis MIC90 of NC1CCN(c2nc3c(cc2F)c(=O)c(C(=O)O)cn3-c2ccc(F)cc2F)C1 (stereo not shown) only.
0.5

Send back Enterococcus faecalis MIC90 of `N[C@@H]1[C@H]2CN(c3nc4c(cc3F)c(=O)c(C(=O)O)cn4-c3ccc(F)cc3F)C[C@@H]12` only.
0.25

Send back Enterococcus faecalis MIC90 of `C[C@H]1COc2c(N3CCN(C)CC3)c(F)cc3c(=O)c(C(=O)O)cn1c23` only.
2

###

# System: Haemophilus influenzae
# PROTOCOL NOTES: MIC by NCCLS reference broth microdilution, 450 respiratory tract pathogens
# Type: cell-based
# PARTICULARS: Haemophilus influenzae, Haemophilus influenzae (n = 100); read-out: MIC90
REPORTED METRIC: MIC90 (µg/mL)
Please state the figure in µg/mL; there is no need to write the unit.

Send back Haemophilus influenzae MIC90 of `N[C@@H]1[C@H]2CN(c3nc4c(cc3F)c(=O)c(C(=O)O)cn4-c3ccc(F)cc3F)C[C@@H]12` only.
0.06

Send back Haemophilus influenzae MIC90 of `CO/N=C(\C(=O)N[C@@H]1C(=O)N2C(C(=O)O)=C(COC(N)=O)CS[C@H]12)c1ccco1` only.
1

Send back Haemophilus influenzae MIC90 of `C[C@@H]1CN(c2c(F)c(N)c3c(=O)c(C(=O)O)cn(C4CC4)c3c2F)C[C@H](C)N1` only.
0.03

Send back Haemophilus influenzae MIC90 of `C[C@H]1COc2c(N3CCN(C)CC3)c(F)cc3c(=O)c(C(=O)O)cn1c23` only.
0.03

Send back Haemophilus influenzae MIC90 of `COc1c(N2C[C@@H]3CCCN[C@@H]3C2)c(F)cc2c(=O)c(C(=O)O)cn(C3CC3)c12` only.
0.06
